Biological target: T1, human GLP-1 receptor (human, UniProt P43220 24-463)
T1 construct: whole, on cells; Used as purified plasma membranes of the stably transfected BHK cell line, not as intact cells; also called hGLP-1
Test: SPA, displacement of 125I-GLP-1(7-36)NH2 from hGLP-1R BHK membranes, high HSA (2.0%)
pIC50: −log10 of the molar value. Numbered stars: 1 amine (or outer) side, 2 acyl side, 3 side chain; on linkers, the order of the positions; unused ones are H or OH. Square brackets hold non-standard residues; d marks the D form. Side chains are listed from the residue outwards. Ends that are not written are not given here. * marks the point of attachment. Decanoyl(10-(4-HOOC-PhO)) = O=C(O)c1ccc(OCCCCCCCCCC(=O)*)cc1; γGlu = O=C(O)[C@H](CCC(=O)[*:2])N[*:1]; C14 diacid = O=C(O)CCCCCCCCCCCCC(=O)*; AEEA = NCCOCCOCC(=O)O; Aib = CC(C)(N)C(=O)O
experimental.endpoint: pIC50

1) HAEGTFTSDVSSYLEEQAARK([AEEA-AEEA-γGlu-Decanoyl(10-(4-HOOC-PhO))])FIAWLVRGRK([AEEA-AEEA-γGlu-Decanoyl(10-(4-HOOC-PhO))]) ... 7.38
2) H[Aib]EGTFTSDVSSYLEK([AEEA-AEEA-γGlu-C14 diacid])QAVRK([AEEA-AEEA-γGlu-C14 diacid])FIAHLVRGRG ... 7.68
3) HAEGTFTSDVSSYLEGQAVRK([AEEA-AEEA-γGlu-Decanoyl(10-(4-HOOC-PhO))])FIEWLVRGK([AEEA-AEEA-γGlu-Decanoyl(10-(4-HOOC-PhO))])GQ (also called 12) ... 7.14
